The measurements presented in this section are drawn from PubChem BioAssay (NCATS).

- Test system: Nanoluciferase (engineered Oplophorus gracilirostris luciferase)
- test name: Primary Nanoluciferase (NLuc) qHTS assay for identification of artifact compounds. (AID 1845222);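 further: NLuc secreted into diluted conditioned medium of S16 cells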
- measurement context: NLuc-conditioned medium, Nano-Glo luminescence, 5 min; series mostly up to 54.1 µM
The source made the active and inactive calls. The call rests on the fitted dose curve; in most records, active means well fitted inhibition curve with a large enough effect; inconclusive means small, poorly fitted or top-dose-only effect; inactive means flat fitted curve, though single readings scatter.
measurement label: activity, negative = inhibition

Example cases with answers are listed next.
compound | activity, negative = inhibition
O=c1[nH]c2cccc(N3CCN(Cc4ccc(-c5ccccc5)cc4)CC3)c2o1 | inactive
COC1CC(=O)C23C(=O)NC(CC(C)C)C2C(C)C(C)=CC3/C=C(\C)CCCC1O (centres undefined) | inactive
C=C1C(=O)OC2CC(C)C(CCC(C)O)=CCC12 (centres undefined) | inactive
C[C@@H]1O[C@@H](O[C@H]2[C@@H]3C=CO[C@@H](O[C@@H]4O[C@H](CO)[C@@H](O)[C@H](O)[C@H]4O)[C@@H]3[C@@]3(CO)O[C@@H]23)[C@H](O)[C@H](OC(=O)/C=C/c2ccccc2)[C@H]1O | inactive
Nc1nc(Cl)nc2c1ncn2C1OC(CO)C(O)C1F (centres undefined) | inactive
COc1ccc(Sc2ccc(NC(=O)c3ccccc3Cl)cc2C#N)cc1 | inactive
CCOc1ccc(CCNC(=O)c2cc3sc(Cl)cc3n2C)cc1OCC | inactive
CCC/C=C\C=C/CCc1cc(O)c([C@@H]2O[C@H](CO)[C@@H](O)[C@H](O)[C@H]2O)c(O)c1C(=O)OC | inactive

Notebook entry, Nanoluciferase (engineered Oplophorus gracilirostris luciferase) assay: activity, negative = inhibition of `Cc1nc(C#Cc2ccnc(Cl)c2)c(C)n1-c1ccc(OC(F)(F)F)cc1` = ?
inactive

* * *

- Tested on: astro
- test name: Drug repurposing screens with cells derived from glioblastoma tumor samples (AID 1345199); further: nearly all actives have a fitted effect of over 40% in size
- measurement context: viability, ATP luminescence, 48 h; series mostly up to 45.9 µM
Results filed as inconclusive are left out. Activity calls are given as the source filed them. The call rests on the fitted dose curve; in most records, active means well fitted inhibition curve with a large enough effect; inconclusive means small, poorly fitted or top-dose-only effect; inactive means flat fitted curve, though single readings scatter.
# output must be one of active, inactive

Test call for this molecule, please: `O=C(Nc1ccc(/C=C/c2ccc(NC(=O)c3cc(S(=O)(=O)O)c4cccnc4c3O)cc2S(=O)(=O)O)c(S(=O)(=O)O)c1)c1cc(S(=O)(=O)O)c2cccnc2c1O`
inactive

# iterate: `CCC(C)(C)OC(=O)N[C@@H](Cc1c[nH]c2ccccc12)C(=O)N[C@@H](CCSC)C(=O)N[C@@H](CC(=O)O)C(=O)N[C@@H](Cc1ccccc1)C(N)=O`
inactive

# iterate: `CCOc1ccc(N=C(C)Nc2ccc(OCC)cc2)cc1`
inactive

# iterate: `Nc1c(CC(=O)O)cccc1C(=O)c1ccccc1`
inactive

# iterate: CN(C(=O)CO)c1c(I)c(C(=O)NCC(O)CO)c(I)c(C(=O)NCC(O)CO)c1I (centres undefined)
inactive

# iterate: `CN(C)Cc1ccccc1`
inactive

# iterate: `CCCOc1ccc2nc(NC(=O)OC)sc2c1`
active

# iterate: `CC(C)(C)NC(=O)[C@H]1CC[C@H]2[C@@H]3CC=C4C=C(C(=O)O)CC[C@]4(C)[C@H]3CC[C@]12C`
inactive

# iterate: `CC(=O)OC[C@H]1O[C@@H](O[C@H]2[C@H](O)[C@@H](OC(=O)c3ccccc3C(=O)O)[C@H](O)O[C@@H]2COC(C)=O)[C@H](O)[C@@H](OC(=O)c2ccccc2C(=O)O)[C@@H]1O`
inactive
